Attribution: patent US20130324522A1

target: OR8/OR7 (Anopheles gambiae, UniProt Q7PUT5+Q7QCC7); test: Ca2+-imaging of stable HEK293T cell line OR8/OR7; assay type: cell-based; conditions: HEK-293T; compound applied at 4 μM; read-out: Percent Inhibition OR8 OR7
Sequence (Q7QCC7 whole entry): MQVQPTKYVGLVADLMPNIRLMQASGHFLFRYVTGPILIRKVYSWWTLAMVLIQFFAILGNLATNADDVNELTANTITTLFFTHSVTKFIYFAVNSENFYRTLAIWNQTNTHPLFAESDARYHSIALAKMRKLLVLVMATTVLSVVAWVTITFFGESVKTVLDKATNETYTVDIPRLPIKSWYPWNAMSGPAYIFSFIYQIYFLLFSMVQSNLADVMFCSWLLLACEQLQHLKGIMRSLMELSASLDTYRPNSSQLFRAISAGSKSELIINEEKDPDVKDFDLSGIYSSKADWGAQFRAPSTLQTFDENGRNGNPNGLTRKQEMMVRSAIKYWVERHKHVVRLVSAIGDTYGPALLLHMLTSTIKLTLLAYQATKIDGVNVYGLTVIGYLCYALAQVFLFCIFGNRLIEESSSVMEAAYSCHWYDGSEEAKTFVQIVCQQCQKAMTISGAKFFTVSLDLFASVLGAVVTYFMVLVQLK
Sequence (Q7PUT5 entry or part of it): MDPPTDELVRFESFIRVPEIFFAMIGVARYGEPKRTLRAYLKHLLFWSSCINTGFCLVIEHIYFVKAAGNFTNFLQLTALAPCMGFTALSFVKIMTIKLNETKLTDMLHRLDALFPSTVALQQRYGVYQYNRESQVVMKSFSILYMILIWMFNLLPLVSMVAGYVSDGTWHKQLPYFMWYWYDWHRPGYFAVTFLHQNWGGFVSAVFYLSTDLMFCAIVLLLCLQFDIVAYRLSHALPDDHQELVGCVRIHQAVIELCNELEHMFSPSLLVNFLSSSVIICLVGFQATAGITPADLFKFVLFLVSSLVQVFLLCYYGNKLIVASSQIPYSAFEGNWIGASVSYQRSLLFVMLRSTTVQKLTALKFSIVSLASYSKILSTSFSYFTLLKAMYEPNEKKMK
Recorded inhibition at 4 µM values for a group of compounds are listed next.

{"compound": "C=CCN(Cc1nccn1Cc1ccccc1F)C(=O)c1cccc(F)c1 [RU-0058232]", "tested_target": "OR8/OR7 (Anopheles gambiae, UniProt Q7PUT5+Q7QCC7)", "experimental_endpoint": "inhibition at 4 µM", "readout_value": "26 to 50%"}
{"compound": "COCCCN(Cc1c(-c2ccccc2)noc1N1CCCC1)C(=O)c1ccc(F)cc1 [RU-0037386]", "tested_target": "OR8/OR7 (Anopheles gambiae, UniProt Q7PUT5+Q7QCC7)", "experimental_endpoint": "inhibition at 4 µM", "readout_value": "51 to 74%"}

Turning to the following compound.
Inquiry: So what's the measured inhibition at 4 µM for this one? COCCN(Cc1c(-c2ccccc2)noc1N(C)C1CCCCC1)C(=O)c1ccccc1OC [RU-0037275]
Reply text: 51 to 74%

* * *

target: Or47a/Or83b (Drosophila melanogaster, UniProt P81921+Q9VNB5); construct: Full-length cDNAs for mosquito (Anopheles gambiae) odorant receptor (OR1, OR2, OR7, OR8, OR28), and fly (Drosophila melanogaster) odorant receptor (Or47a, Or83b); expressed in transfected cells; test: Ca2+-imaging of stable Flip-In T-Rex cell line Or47a/Or83b; format: cell-based; conditions: read-out: IC50 OR47a
Sequence (P81921 whole entry): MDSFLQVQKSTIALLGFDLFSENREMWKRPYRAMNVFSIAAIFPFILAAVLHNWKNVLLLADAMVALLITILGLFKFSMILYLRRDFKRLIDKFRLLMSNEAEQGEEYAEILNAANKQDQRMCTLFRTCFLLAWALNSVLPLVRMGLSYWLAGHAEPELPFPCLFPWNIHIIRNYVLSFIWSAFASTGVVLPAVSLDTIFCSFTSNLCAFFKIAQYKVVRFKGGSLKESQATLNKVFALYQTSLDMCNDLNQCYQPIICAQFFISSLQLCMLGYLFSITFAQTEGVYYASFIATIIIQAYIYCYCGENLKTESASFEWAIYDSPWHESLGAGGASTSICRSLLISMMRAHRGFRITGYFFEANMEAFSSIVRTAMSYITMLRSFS
Sequence (Q9VNB5 whole entry): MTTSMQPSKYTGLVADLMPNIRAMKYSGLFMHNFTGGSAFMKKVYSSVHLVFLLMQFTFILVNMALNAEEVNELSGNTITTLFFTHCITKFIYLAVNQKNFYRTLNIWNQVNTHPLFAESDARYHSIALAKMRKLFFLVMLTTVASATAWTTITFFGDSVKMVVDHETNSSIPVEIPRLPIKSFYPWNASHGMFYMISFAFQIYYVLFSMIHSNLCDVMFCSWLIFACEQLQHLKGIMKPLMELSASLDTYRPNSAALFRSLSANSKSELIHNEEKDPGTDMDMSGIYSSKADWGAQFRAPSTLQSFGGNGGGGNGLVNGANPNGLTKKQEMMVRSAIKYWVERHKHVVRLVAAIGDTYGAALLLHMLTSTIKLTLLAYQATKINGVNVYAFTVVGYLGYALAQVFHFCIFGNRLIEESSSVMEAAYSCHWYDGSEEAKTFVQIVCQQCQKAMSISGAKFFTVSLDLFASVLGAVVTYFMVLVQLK
pIC50: −log10 of the molar value.
experimental_endpoint: pIC50

Inquiry: Kindly state the measured pIC50 obtained for Cc1cc(C)c2c(c1C(=O)N1CCC3(CC1)C(=O)NCN3c1ccccc1)CC(C)(C)C2=O [RU-0025771] with Or47a/Or83b (Drosophila melanogaster, UniProt P81921+Q9VNB5).
Reply text: < 6.00

* * *

target: Or47a/Or83b (Drosophila melanogaster, UniProt P81921+Q9VNB5); construct: Full-length cDNAs for mosquito (Anopheles gambiae) odorant receptor (OR1, OR2, OR7, OR8, OR28), and fly (Drosophila melanogaster) odorant receptor (Or47a, Or83b); expressed in transfected cells; test: Ca2+-imaging of stable Flip-In T-Rex cell line Or47a/Or83b; type: cell-based; conditions: compound applied at 4 μM; read-out: Percent Inhibition OR47a OR83b
Recorded inhibition at 4 µM values for a group of molecules are listed next.

Examples with answers:
{"molecule": "O=C(c1c(F)c(F)cc(F)c1F)N1CCOC(Cc2ccccc2)C1 (stereo not drawn) [RU-0050393]", "tested_target": "Or47a/Or83b (Drosophila melanogaster, UniProt P81921+Q9VNB5)", "readout_value": "26 to 50%"}
{"molecule": "C=CCN(Cc1nccn1Cc1ccccc1F)C(=O)C1CCCC1 [RU-0058964]", "tested_target": "Or47a/Or83b (Drosophila melanogaster, UniProt P81921+Q9VNB5)", "readout_value": "51 to 74%"}
{"molecule": "Fc1ccccc1/C=N/Nc1nc(N2CCCCC2)nc(N2CCOCC2)n1 [RU-0018338]", "tested_target": "Or47a/Or83b (Drosophila melanogaster, UniProt P81921+Q9VNB5)", "readout_value": "51 to 74%"}
{"molecule": "COc1ccc(C(=O)c2ccccc2)c(O)c1O [RU-0001617]", "tested_target": "Or47a/Or83b (Drosophila melanogaster, UniProt P81921+Q9VNB5)", "readout_value": "51 to 74%"}

Inquiry: So what's the measured inhibition at 4 µM for this one? COCCCN(CC(=O)N1CCc2sccc2C1c1ccc(OC)cc1)C(=O)C(C)(C)CCl (stereo not drawn) [RU-0069950]
Reply text: 51 to 74%

Inquiry: So what's the measured inhibition at 4 µM for this one? CC(NC(=O)c1cc2n(n1)CCN(Cc1c(Cl)cccc1Cl)C2=O)c1ccccc1 (stereo not drawn) [RU-0045115]
Reply text: 26 to 50%
